The measurements presented in this section are drawn from the supplement of paper PMC4466140.

Entries and their measured SPOT peptide array binding signal intensity follow.
# tested.on: CaLsb4
# protocol.description: SPOT peptide array binding signal intensity (averaged, normalized) (arbitrary units (background-subtracted, floor 0; scale differs between SH3 domains)); higher = stronger binding of the SH3 domain to the peptide
The answer should be written as a number, with no unit following it.

Example binders with recorded SPOT peptide array binding signal intensity:
• SAPDIPPRSPNRNAH = 4890
• ISRRRLPVIMHRLKM = 177

Would you kindly share the measured SPOT peptide array binding signal intensity for TIRRRAPLSLLESHT ?
130

Do the same for DDEDVPPQLPTRTKS please
6780
